- Test system: Thyroperoxidase (TPO), gene 54314
- Assay Notes: CCTE_Simmons_AUR_rTPO: CCTE's Amplex UltraRed Assay for Thyroperoxidase (TPO) Inhibition, Simmons Lab (AID 2283662)
Activity calls are given as the source filed them. The calls were made as follows: active = hit-call score of the fitted dose curve at least 0.9, where 1 is the maximum; inconclusive = response in the unintended direction; inactive = score below 0.9.
Outcome codes: 1 = active, 0 = inactive

{"columns": ["Structure Notation", "Group Label"],
 "data": [
  ["COP(=O)(OC)OC=C(Cl)Cl", 1],
  ["N#CN", 1],
  ["COP(=S)(OC)Oc1ccc([N+](=O)[O-])cc1", 1],
  ["COc1nn(CSP(=S)(OC)OC)c(=O)s1", 1],
  ["O=S(=O)(O)C(F)(F)C(F)(F)C(F)(F)C(F)(F)C(F)(F)C(F)(F)C(F)(F)C(F)(F)F", 0],
  ["O=C(Nc1ccccc1)Nc1cnns1", 1],
  ["CNC(=O)CSP(=S)(OC)OC", 1]
]}
